Experiment: Cytotoxicity assay (MTT assay)
Format: cell-based
Conditions: human, HepG2 cells, HepG 2 cell line
QUANTITY_KIND: CC50

Query :: Find the recorded CC50 belonging to Cc1ccc(C(=O)O)c(Nc2ccc(N3CCOCC3)cc2)n1 and report it.
Result :: > 100 µg/mL
